# Lookup of reported GI50 keyed by entry
# System: TK-10
# assay-remarks: NCI tumour cell line growth inhibition, 48 h
Activity calls are given as the source filed them. No stated cut-off is given here; in the data, active = GI50 up to about 1.1 µM and inactive = higher.

Example entries and their recorded answers appear below.
molecule	readout-kind	measured-result
O=C(O)c1ccccn1 [2-PICOLINIC ACID]	GI50	> 100 µM (inactive)
CCOc1ccc(/N=C\c2cc(OC)c(OC)c(OC)c2)cc1	GI50	> 100 µM (inactive)
O=C(NO)c1ccc(C(=O)NO)cc1	GI50	76 µM (inactive)

input: Give GI50; test system TK-10; molecule Nc1ccc(C(=O)N/C(=C\c2ccc3c(c2)OCO3)c2nc3ccc4c(c3[nH]2)C(=O)c2ccccc2C4=O)cc1
output: 23.1 µM (inactive)

input: Give GI50; test system TK-10; molecule COc1c(C=O)c2c(c(OC)c1OC)-c1ccc(OC)c(=O)cc1[C@@H](NC(C)=O)CC2
output: 3.83 µM (inactive)

###

# Tested on: NCI/ADR-RES
# assay-remarks: NCI tumour cell line growth inhibition, 48 h
Activity calls are given as the source filed them. Cut-off read from the data, not from the text of the source: active = GI50 up to about 1.1 µM and inactive = higher.
readout-kind: GI50

N#CC(C#N)=C(N)/C(C#N)=C/c1ccc(O)c(O)c1 41.5 µM (inactive)
COc1ccc2nc3ccc(OC)cc3c(S(=O)(=O)Cc3ccc([N+](=O)[O-])cc3)c2c1 > 100 µM (inactive)

input: State, in one line, measured GI50 of CCc1n[nH]c(=O)[nH]1
output: > 100 µM (inactive)

input: State, in one line, measured GI50 of Cc1cccc(N/C(=C(/C(Cl)=C(Cl)Cl)[N+](=O)[O-])n2nnc3ccccc32)c1
output: 19.7 µM (inactive)

input: State, in one line, measured GI50 of COc1ccc2c(c1)SC1=Nc3sc4cc(OC)ccc4[n+]3CN12
output: 99.3 µM (inactive)

input: State, in one line, measured GI50 of c1cc2c(cc1NC1=NCCO1)CCCC2
output: 2.18 µM (inactive)

###

# System: HL-60
# assay-remarks: NCI tumour cell line growth inhibition, 48 h
Activity calls are given as the source filed them. Cut-off read from the data, not from the text of the source: active = GI50 up to about 1.1 µM and inactive = higher.
Your response should consist of one outcome taken from true = active, false = inactive

Below, 6 compounds whose answers are already recorded.
compound	class-assignment
COC(=O)/C=C1/SC(/C(=C(/[O-])OC)[n+]2ccc3ccccc3c2)=NC1=O	false
COc1ccc2nc(-c3ccccc3)cc(OCC(=O)O)c2c1	false
O=C(O)c1nc2ccccc2nc1Nc1ccc(Cl)c(Cl)c1	false
CC(CN(C)C)C(O)(c1ccccc1)c1ccccc1 (centres undefined)	false
O=C1CCCCC1CN1CCCCC1 (centres undefined)	false
COc1cc2c(cc1OC)C(=O)/C(=C/c1cc(Cl)cc(Cl)c1)C2	false

input: # outcome recorded in this test, key = COc1ccc(/C=C(/C(=O)c2ccc(Cl)cc2)N2C=CC=CC2=C(C#N)C#N)cc1OC
output: false

input: # outcome recorded in this test, key = O=[N+]([O-])c1nccn1CC(O)c1ccccc1 (centres undefined)
output: false

input: # outcome recorded in this test, key = COc1ccc2nc3cc(Cl)ccc3c(NCCCN3CCN(CCCNc4ccc5nnn6c7ccccc7c(=O)c4c56)CC3)c2c1
output: false

input: # outcome recorded in this test, key = Cc1nc(O)c(Cc2ccccc2O)c(-c2ccccc2)n1
output: false

input: # outcome recorded in this test, key = CCOC(=O)NC(=O)c1cn(CCN2CCN(C(=O)CCCCCCCCCCNc3ncnc4[nH]cnc34)CC2)c(=O)[nH]c1=O
output: false

input: # outcome recorded in this test, key = CC(=O)Nc1ccc(-c2nnc(SCC(=O)Nc3ccccc3[N+](=O)[O-])o2)cc1
output: false

input: # outcome recorded in this test, key = COc1ccc2c(c1)SC1=Nc3sc4cc(OC)ccc4[n+]3CN12
output: false

input: # outcome recorded in this test, key = c1cc2c(cc1NC1=NCCO1)CCCC2
output: false

input: # outcome recorded in this test, key = CCN(CC)/C(Cl)=C(Cl)\C(=C1\Nc2ccc(OC)cc21)[N+](=O)[O-]
output: false

input: # outcome recorded in this test, key = O=C(CC(=O)N(C(=O)c1ccccc1)c1ccc(Cl)cc1)N/N=C\c1cc(/N=N/c2ccccc2Cl)ccc1O
output: false

FYI, the data here is from ChEMBL document CHEMBL1201862.
